Reference source for all entries: patent US8513242B2

Recorded EC50 values for a group of molecules are listed next.
- TESTED ON: ΔF508 CFTR (Homo sapiens, UniProt P13569, DEL508-508)
- Construct: expressed in transfected cells; host or cells: FRT epithelial cells (Fischer rat thyroid)
- Sequence (P13569 with tags, fused parts or gaps DEL508-508): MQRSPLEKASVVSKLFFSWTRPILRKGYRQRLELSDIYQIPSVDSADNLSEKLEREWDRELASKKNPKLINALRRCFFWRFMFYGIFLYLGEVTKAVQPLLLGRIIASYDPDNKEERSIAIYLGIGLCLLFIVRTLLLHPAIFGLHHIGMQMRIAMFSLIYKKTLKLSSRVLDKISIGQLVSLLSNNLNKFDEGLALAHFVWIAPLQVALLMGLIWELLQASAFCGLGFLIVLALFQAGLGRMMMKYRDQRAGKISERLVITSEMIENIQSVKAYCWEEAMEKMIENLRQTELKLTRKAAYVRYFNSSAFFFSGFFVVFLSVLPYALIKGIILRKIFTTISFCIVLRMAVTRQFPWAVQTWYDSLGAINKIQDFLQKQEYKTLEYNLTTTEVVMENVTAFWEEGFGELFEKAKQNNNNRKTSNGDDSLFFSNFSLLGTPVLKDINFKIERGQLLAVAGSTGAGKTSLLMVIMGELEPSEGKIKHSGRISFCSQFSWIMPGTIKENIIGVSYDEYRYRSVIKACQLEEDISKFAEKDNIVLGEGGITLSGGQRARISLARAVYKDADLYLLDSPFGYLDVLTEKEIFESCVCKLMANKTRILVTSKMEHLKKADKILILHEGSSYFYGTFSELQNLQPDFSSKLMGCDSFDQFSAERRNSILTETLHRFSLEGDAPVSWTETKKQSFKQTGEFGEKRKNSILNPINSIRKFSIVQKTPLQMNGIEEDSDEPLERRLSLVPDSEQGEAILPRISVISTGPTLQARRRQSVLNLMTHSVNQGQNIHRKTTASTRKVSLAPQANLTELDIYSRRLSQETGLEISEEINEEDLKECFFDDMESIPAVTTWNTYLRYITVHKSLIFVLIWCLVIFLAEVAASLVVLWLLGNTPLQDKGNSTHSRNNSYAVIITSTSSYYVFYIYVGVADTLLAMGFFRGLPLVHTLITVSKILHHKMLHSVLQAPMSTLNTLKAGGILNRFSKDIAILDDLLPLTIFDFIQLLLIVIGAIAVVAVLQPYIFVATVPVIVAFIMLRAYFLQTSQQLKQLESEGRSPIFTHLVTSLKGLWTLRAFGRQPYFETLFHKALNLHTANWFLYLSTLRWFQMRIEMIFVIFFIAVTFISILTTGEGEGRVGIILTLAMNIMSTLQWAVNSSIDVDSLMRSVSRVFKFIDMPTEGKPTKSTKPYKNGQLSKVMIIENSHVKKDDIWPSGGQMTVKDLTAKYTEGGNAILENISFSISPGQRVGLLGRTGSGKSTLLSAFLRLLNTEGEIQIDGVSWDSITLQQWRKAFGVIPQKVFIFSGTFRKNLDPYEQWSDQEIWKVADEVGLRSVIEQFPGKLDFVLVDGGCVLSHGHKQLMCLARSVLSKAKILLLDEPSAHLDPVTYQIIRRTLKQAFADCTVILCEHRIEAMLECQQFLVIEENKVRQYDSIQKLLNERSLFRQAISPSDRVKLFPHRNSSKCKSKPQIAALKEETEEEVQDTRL
- ASSAY NOTES: Dual corrector potentiator assay, corrector mode: FRT cell Ussing chamber short circuit current after 24 hours exposure to compound
- Format: cell-based
- STUDY CONDITIONS: FRT cell monolayers, 24 hours exposure; EC50 defined as concentration giving >25% increase in whole cell Cl− conductance vs DMSO at 37° C.
MEASURED ATTRIBUTE: EC50

{"MOLECULE": "COc1nc(N[C@H]2CC[C@@H](C)CC2)ncc1-c1ccc(OC(C)C)nc1 [Example 118]", "MEASURED ATTRIBUTE": "EC50", "RESULT": "< 10 µM"}
{"MOLECULE": "C[C@H]1CC[C@@H](Nc2ncc(-c3ccc(OC(F)(F)F)cc3)cn2)CC1 [Example 4]", "MEASURED ATTRIBUTE": "EC50", "RESULT": "< 10 µM"}
{"MOLECULE": "COc1nc(N[C@H]2CC[C@@H](C)CC2)ncc1-c1ccc(OC(F)(F)F)cc1 [Example 58]", "MEASURED ATTRIBUTE": "EC50", "RESULT": "< 10 µM"}
{"MOLECULE": "COc1nc(N[C@H]2CC[C@@H](C)CC2)ncc1-c1ccc(OC(F)F)cc1 [Example 59]", "MEASURED ATTRIBUTE": "EC50", "RESULT": "< 10 µM"}
{"MOLECULE": "COc1nc(N[C@H]2CC[C@@H](C)CC2)ncc1-c1ccc(N2CCCCC2)nc1 [Example 119]", "MEASURED ATTRIBUTE": "EC50", "RESULT": "< 10 µM"}
{"MOLECULE": "C[C@H]1CC[C@@H](Nc2ncc(-c3ccc4c(c3)OCCO4)c(O[C@@H]3CCOC3)n2)CC1 [Example 201]", "MEASURED ATTRIBUTE": "EC50", "RESULT": "~10 µM"}
{"MOLECULE": "CC(C)Oc1ccc(-c2cnc(N[C@H]3CC[C@@H](C)CC3)nc2)cc1 [Example 23]", "MEASURED ATTRIBUTE": "EC50", "RESULT": "< 10 µM"}
{"MOLECULE": "C[C@H]1CC[C@@H](Nc2ncc(-c3ccc(OC(F)F)cc3)cn2)CC1 [Example 19]", "MEASURED ATTRIBUTE": "EC50", "RESULT": "< 10 µM"}
{"MOLECULE": "COc1ccc(-c2cnc(N[C@H]3CC[C@@H](C)CC3)nc2)cc1 [Example 27]", "MEASURED ATTRIBUTE": "EC50", "RESULT": "< 10 µM"}

###

- TESTED ON: ΔF508 CFTR (Homo sapiens, UniProt P13569, DEL508-508)
- Construct: expressed in transfected cells; host or cells: FRT epithelial cells (Fischer rat thyroid)
- ASSAY NOTES: Dual corrector potentiator assay, potentiator mode: FRT cell Ussing chamber short circuit current, compound added to mucosal solution
- Format: cell-based
- STUDY CONDITIONS: ** cells treated with reference corrector N-(2-(5-chloro-2-methoxyphenylamino)-4′-methyl-4,5′-bithiazol-2′-yl)benzamide; ΔI(forskolin+compound)/ΔI(forskolin+IBMX+genistein)

{"STRUCTURE": "COc1ccc(-c2cnc(N[C@H]3CC[C@@H](C)CC3)nc2)cc1", "Potentiator Efficacy": "++** (++=0.3-0.6)"}
{"STRUCTURE": "C[C@H]1CC[C@@H](Nc2ncc(-c3ccc(OC(F)(F)F)cc3)cn2)CC1", "Potentiator Efficacy": "+++** (+++=>0.6)"}
{"STRUCTURE": "C[C@H]1CC[C@@H](Nc2ncc(-c3ccc(OC(F)F)cc3)cn2)CC1", "Potentiator Efficacy": "+++** (+++=>0.6)"}
{"STRUCTURE": "COc1nc(N[C@H]2CC[C@@H](C)CC2)ncc1-c1ccc(OC(F)F)cc1", "Potentiator Efficacy": "++** (++=0.3-0.6)"}
{"STRUCTURE": "COc1nc(N[C@H]2CC[C@@H](C)CC2)ncc1-c1ccc(OC(C)C)cc1", "Potentiator Efficacy": "++** (++=0.3-0.6)"}
{"STRUCTURE": "COc1nc(N[C@H]2CC[C@@H](C)CC2)ncc1-c1ccc(OC(F)(F)F)cc1", "Potentiator Efficacy": "+++** (+++=>0.6)"}
{"STRUCTURE": "CC(C)Oc1ccc(-c2cnc(N[C@H]3CC[C@@H](C)CC3)nc2)cc1", "Potentiator Efficacy": "+++** (+++=>0.6)"}
